- MEASUREMENT TARGET: recombinant mouse GALK1 (Mus musculus, UniProt Q9R0N0)
- Sequence (Q9R0N0 whole entry): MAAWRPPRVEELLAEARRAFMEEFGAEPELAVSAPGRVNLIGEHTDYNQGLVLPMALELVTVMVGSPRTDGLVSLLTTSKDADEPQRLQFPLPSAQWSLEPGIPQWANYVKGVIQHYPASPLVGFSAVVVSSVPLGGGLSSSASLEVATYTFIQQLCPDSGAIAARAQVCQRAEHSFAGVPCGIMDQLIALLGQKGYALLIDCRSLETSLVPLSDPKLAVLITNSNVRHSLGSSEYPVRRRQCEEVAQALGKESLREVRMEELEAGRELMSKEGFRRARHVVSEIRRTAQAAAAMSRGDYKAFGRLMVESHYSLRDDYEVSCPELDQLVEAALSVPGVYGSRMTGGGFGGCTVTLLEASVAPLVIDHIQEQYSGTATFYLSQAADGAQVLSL
- TEST SUMMARY: mGALK1 biochemical activity assay (Kinase-Glo Plus, ATP depletion)
- CONDITION NOTES: Tables 2-15; 35 μM ATP, 100 μM galactose, 1 h; bracketed figure after some values is undefined and not reported; read-out: mGALK IC50
pIC50: −log10 of the molar value.
VALUE TYPE: pIC50

INSERT INTO assay_data (compound, assay_value) VALUES
  ('CCn1cc(CNC(=O)C2=C(C)NC(Nc3nc4ccc(F)cc4o3)=NC2c2ccc(C)cc2Cl)cn1 (stereo not shown)', 5.16),
  ('CC1=C(C(=O)Nc2cc(C(=O)O)ccn2)C(c2ccccc2Cl)N=C(Nc2nc3cccc(Cl)c3o2)N1 (stereo not shown)', 5.01),
  ('CC1=C(C(=O)Nc2cc(C(=O)O)ccn2)C(c2ccc(C)cc2Cl)N=C(Nc2nc3cccc(N)c3o2)N1 (racemic)', 5.76),
  ('CC1=C(C(=O)Nc2ccc(C(N)=O)cc2)C(c2ccccc2Cl)N=C(Nc2nc3ccccc3o2)N1 (stereo not shown)', 5.16),
  ('CC1=C(C(=O)Nc2cc(C(=O)O)ccn2)C(c2ccccc2Br)N=C(Nc2nc3ccc(F)cc3o2)N1 (stereo not shown)', 5.41),
  ('CC1=C(C(=O)Nc2cccc(-c3nnn[nH]3)c2)C(c2ccccc2Cl)N=C(Nc2nc3ccccc3o2)N1 (stereo not shown)', 4.46),
  ('CC1=C(C(=O)Nc2cc(C(=O)O)ccn2)C(c2ccc(Br)cc2Cl)N=C(Nc2nc3ccc(F)cc3o2)N1 (stereo not shown)', 5.41),
  ('CC1=C(C(=O)Nc2ccc(C(=O)N3CCOCC3)cc2)C(c2ccccc2Cl)N=C(Nc2nc3ccccc3o2)N1 (stereo not shown)', 4.66),
  ('CC1=C(C(=O)Nc2cc(C(=O)O)ccn2)C(c2ccccc2Cl)N=C(Nc2nc3ccccc3o2)N1 (racemic)', 5.16),
  ('CC1=C(C(=O)Nc2cc(C(=O)O)ccn2)C(c2ccc(N3CCCC3)cc2Cl)N=C(Nc2nc3ccc(F)cc3o2)N1 (stereo not shown)', 4.96),
  ('CC1=C(C(=O)Nc2cc(C(=O)O)ccn2)[C@H](c2ccccc2Cl)N=C(Nc2nc3cccc(N)c3o2)N1', 5.76),
  ('CC1=C(C(=O)Nc2cc(C(=O)O)ccn2)C(c2cccc(Cl)c2Cl)N=C(Nc2nc3ccc(F)cc3o2)N1 (stereo not shown)', 4.66),
  ('CC1=C(C(=O)Nc2ccc(Br)cc2)C(c2ccccc2Cl)N=C(Nc2nc3ccccc3o2)N1 (stereo not shown)', 4.81),
  ('CCn1cc(CNC(=O)C2=C(C)NC(Nc3nc4ccc(F)c(N)c4o3)=NC2c2ccc(C)cc2Cl)cn1 (racemic)', 6.21),
  ('CC1=C(C(=O)Nc2cc(C(=O)O)ccn2)C(c2ccccc2Cl)N=C(Nc2nc3c(N)cccc3o2)N1 (stereo not shown)', 4.51),
  ('CC1=C(C(=O)NCc2c(C)nn(C)c2C)C(c2ccc(C)cc2Cl)N=C(Nc2nc3cccc(N)c3o2)N1 (stereo not shown)', 5.16),
  ('CC1=C(C(=O)Nc2cc(C(=O)O)ccn2)C(c2ccc(-c3ccc(C(F)(F)F)cc3)cc2Cl)N=C(Nc2nc3ccc(F)cc3o2)N1 (stereo not shown)', 4.66),
  ('CC1=C(C(=O)Nc2cc(C(=O)O)ccn2)C(c2ccccc2Cl)N=C(Nc2nc3cc(C)ccc3o2)N1 (stereo not shown)', 5.51),
  ('COC(=O)c1ccc(NC(=O)C2=C(C)NC(Nc3nc4ccccc4o3)=NC2c2ccccc2Cl)cc1 (stereo not shown)', 5.01),
  ('CC1=C(C(=O)Nc2cc(C(=O)O)ccn2)C(c2cc(C(=O)O)ccc2Cl)N=C(Nc2nc3ccc(F)cc3o2)N1 (stereo not shown)', 4.91),
  ('CC1=C(C(=O)Nc2ncc(CO)s2)C(c2ccccc2Cl)N=C(Nc2nc3ccccc3o2)N1 (stereo not shown)', 4.71),
  ('CC1=C(C(=O)NCc2nccn2C)C(c2ccccc2Cl)N=C(Nc2nc3ccccc3o2)N1 (stereo not shown)', 4.86),
  ('COC(=O)c1ccc(CNC(=O)C2=C(C)NC(Nc3nc4ccccc4o3)=NC2c2ccccc2Cl)cc1 (stereo not shown)', 5.06),
  ('CC1=C(C(=O)Nc2cccc(C(=O)O)c2)C(c2ccccc2Cl)N=C(Nc2nc3ccccc3o2)N1 (stereo not shown)', 5.21),
  ('COC(=O)Cc1ccc(NC(=O)C2=C(C)NC(Nc3nc4ccccc4o3)=NC2c2ccccc2Cl)cc1 (stereo not shown)', 4.91),
  ('CC1=C(C(=O)Nc2cc(C(=O)O)ccn2)C(c2cccc(N)c2Cl)N=C(Nc2nc3ccc(F)cc3o2)N1 (stereo not shown)', 4.76),
  ('CC1=C(C(=O)Nc2cc(C(=O)O)ccn2)C(c2ccc(C)cc2Cl)N=C(Nc2nc3ncccc3o2)N1 (stereo not shown)', 4.71),
  ('CC1=C(C(=O)Nc2cc(C(=O)O)ccn2)C(c2ccc(-c3cnc(C)nc3)cc2Cl)N=C(Nc2nc3ccc(F)cc3o2)N1 (stereo not shown)', 6.16);

Origin of values: patent US20230158025A1
